# Tested on: Escherichia coli TOP10
# assayName: shrunken log2 fold change of peptide-encoding DNA abundance (4.5 h post-induction vs induction); higher = less antimicrobial activity (less host growth inhibition)
# appliedConditions: time post-induction: 4.5 h; library: site-saturation at positions 5, 18, 19, 20
1.0 means recorded shrunken log2 fold change is -0.03 or above; 0.0 means it is below -0.03.

> print(dat)
           sequencecontent  answerlabel
1  RRIRHRPPRLPRPRPRPAKPPRP          1.0
2  RRIRDRPPRLPRPRPRPVTCPRP          1.0
3  RRIRMRPPRLPRPRPRPWHRPRP          0.0
4  RRIRYRPPRLPRPRPRPAYRPRP          0.0

Could you now look at the following sequence, please?
Challenge: Hi, just wondering whether `RRIRARPPRLPRPRPRPLHNPRP` shows shrunken log2 fold change of -0.03 or higher.
Response given: 1.0

---

# Test system: Escherichia coli TOP10
# assayName: shrunken log2 fold change of peptide-encoding DNA abundance (4.5 h post-induction vs induction); higher = less antimicrobial activity (less host growth inhibition)
# appliedConditions: time post-induction: 4.5 h; library: site-saturation at positions 5, 18, 19, 20
Binary call on shrunken log2 fold change: Fulfilled from 0.03 upward, Not fulfilled beneath that.

Challenge: Confirm if shrunken log2 fold change reported for the sequence `RRIRIRPPRLPRPRPRPTCGPRP` is 0.03 or above.
Response given: Not fulfilled

Challenge: Could you please find out whether `RRIRFRPPRLPRPRPRPIQAPRP` has shrunken log2 fold change that meets 0.03 or exceeds it?
Response given: Not fulfilled

Challenge: Please tell me: is the sequence `RRIRARPPRLPRPRPRPMTSPRP` at or over 0.03 in terms of shrunken log2 fold change?
Response given: Fulfilled

Challenge: API: above_or_equal(metric=shrunken log2 fold change, cutoff=0.03) for item `RRIRKRPPRLPRPRPRPRPAPRP`
Response given: Fulfilled

Challenge: // inclusive: shrunken log2 fold change at least 0.03? input: `RRIRHRPPRLPRPRPRPGVGPRP`
Response given: Fulfilled

---

# System: Escherichia coli TOP10
# assayName: shrunken log2 fold change of peptide-encoding DNA abundance (4.5 h post-induction vs induction); higher = less antimicrobial activity (less host growth inhibition)
# appliedConditions: time post-induction: 4.5 h; library: site-saturation at positions 5, 18, 19, 20
measuredProperty: shrunken log2 fold change
When you answer, write just the number.

Challenge: Need shrunken log2 fold change of `RRIRRRPPRLPRPRPRPMNFPRP` , thanks.
Response given: 0.154

---

# Tested on: Escherichia coli TOP10
# assayName: shrunken log2 fold change of peptide-encoding DNA abundance (4.5 h post-induction vs induction); higher = less antimicrobial activity (less host growth inhibition)
# appliedConditions: time post-induction: 4.5 h; library: site-saturation at positions 5, 18, 19, 20
measuredProperty: shrunken log2 fold change
Write no unit; give the number alone.

Answered examples (3):
> print(dat)
           sequencecontent           measuredproperty  experimentalresult
1  RRIRWRPPRLPRPRPRPRKQPRP  shrunken log2 fold change             -0.0611
2  RRIRMRPPRLPRPRPRPGFNPRP  shrunken log2 fold change              -0.106
3  RRIRSRPPRLPRPRPRPDNEPRP  shrunken log2 fold change             -0.0519

Challenge: # get_value(readout= shrunken log2 fold change, system= Escherichia coli TOP10) for `RRIRFRPPRLPRPRPRPLWMPRP`;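 further: peptides expressed intracellularly from a pBAD plasmid library in pooled LB shake-flask culture, induced with 0.3% L-arabinose, DNA abundance read by NGS, three biological replicates, DESeq2 with apeglm shrinkage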
Response given: -0.0523

Challenge: Notebook entry, Escherichia coli TOP10 assay: shrunken log2 fold change of `RRIRVRPPRLPRPRPRPLLCPRP` = ?
Response given: -0.642

Challenge: Lab note: need shrunken log2 fold change with Escherichia coli TOP10 for entry `RRIRDRPPRLPRPRPRPAEGPRP` , please look it up.
Response given: 0.015
